For each entry below, report its RP-LC retention time value.
Protocol Notes: gradient 5% acetonitrile 3 min, to 50% in 2 min, to 85% in 15 min, held 3 min, 100 µL/min
Experimental Conditions: column: Zorbax Extend-C18 2.1 x 50 mm; eluents: water / acetonitrile, 0.1% formic acid
I only need the number, in s, no unit after it.

Item under review: CC(C)n1cnc(S(=O)(=O)N2CCC(C(=O)Nc3cccc(-c4ccno4)c3)CC2)c1 . Reported RP-LC retention time? 753

What do we get for CCCSCCCNC(=O)Cn1nc(-n2cccc2)c2c(C)cc(C)nc21 ? 1050

What do we get for C=CCNC(=O)CCc1c(-c2ccc(F)cc2)nc2ccccn12 ? 589

What do we get for CCOC(=O)CNC(=O)N1CCN(Cc2nc3cccnc3n2-c2ccc(F)cc2)CC1 ? 602

What do we get for O=C(Nc1ccc2c(c1)OCO2)NC1CCCC(OC(=O)Nc2ccc(F)cc2)C1 (configuration not stated) ? 825

What do we get for CCc1ccc(NS(=O)(=O)c2cc(-c3[nH]ncc3C(=O)N(C)C)oc2C)cc1 ? 704

What do we get for CCOC(=O)c1[nH]c(C)c(CCC(=O)N2CCC(C(=O)NCCc3c(C)noc3C)CC2)c1C ? 695

What do we get for CCc1noc(NC(C)=O)c1-c1ccc(C)c(S(=O)(=O)Nc2cc(OC)cc(OC)c2)c1 ? 854

What do we get for CC(C)Cc1cc(-c2nnc3sc(COc4ccccc4Cl)nn23)n[nH]1 ? 941

What do we get for Cc1ccc(NC(=O)Cc2csc3nc(-c4ccc(C)c(C)c4)cn23)cc1C ? 850

What do we get for CCn1c(=O)n(CC(=O)N2CCN(C)CC2)c(=O)c2cnc(-c3ccc(Cl)cc3)nc21 ? 696

What do we get for COc1ccc(CNC(=O)CSc2nccc(N3CCN(c4cc(C)ccc4C)CC3)n2)cc1 ? 861

What do we get for CCNC(=O)CCc1nc2ccccc2n(CC(=O)Nc2cc(OC)cc(OC)c2)c1=O ? 737

What do we get for COC1CN(c2cccc(F)c2)C12CCN(Cc1ccc(F)c(F)c1)CC2 (configuration not stated) ? 785

What do we get for Cc1ccc(N2CC(C(=O)N3CCC(NS(=O)(=O)c4ccccc4)CC3)CC2=O)cc1C (configuration not stated) ? 800

What do we get for Cc1cccc(NC(=O)Cn2c(C)nc(C)c(C)c2=O)c1 ? 658

What do we get for CCc1cc(C(=O)Nc2ccc(N3CCOCC3)cc2)nc2cc(-c3ccco3)nn12 ? 683

What do we get for Cc1oc(-c2[nH]ncc2C(=O)N2CCCCC2)cc1S(=O)(=O)Nc1ccc(Cl)cc1 ? 799

What do we get for O=C(Nc1nc2ccccc2[nH]1)C1CCN(c2ccc(-c3cccs3)nn2)CC1 ? 591

What do we get for COC(=O)Cn1nc2ccc(S(=O)(=O)N3CCC(C)CC3)cn2c1=O ? 819

What do we get for COc1cccc(NC(=O)Nc2cc3c(cc2Oc2ccccc2)n(C)c(=O)n3C)c1 ? 804

What do we get for COCCN1C(=O)c2ccccc2C(C(=O)NCc2ccccc2Cl)C12CCCC2 (configuration not stated) ? 905

What do we get for Cc1csc(-c2cc(S(=O)(=O)NCc3ccc4c(c3)OCO4)cn2CC(=O)N2CCCC2)n1 ? 835

What do we get for COc1ccc(OC)c(NC(=O)C2CCN(S(=O)(=O)c3ccc4c(c3)NC(=O)C(C)O4)CC2)c1 (configuration not stated) ? 856

What do we get for CCCNC(=O)c1ccc2cnn(C)c2c1 ? 673

What do we get for Cc1noc(-c2cccc(OC3CN(C(=O)c4sccc4C)C3)c2)n1 ? 900

What do we get for CCOc1ccc(NS(=O)(=O)c2cc(C(=O)N3CCN(c4cccc(Cl)c4)CC3)n[nH]2)cc1 ? 980

What do we get for Cc1ccc(CNC(=O)N2CCC(OC3CCN(Cc4ccccc4)CC3)CC2)cc1 ? 681

What do we get for Cc1ccc(N2CC(c3noc(-c4cccc(N(C)C)c4)n3)CC2=O)cc1 (configuration not stated) ? 1090

What do we get for COc1ccc(NC(=O)CSc2nccnc2Oc2ccc(C)cc2)cc1OC ? 955

What do we get for O=C(NCc1ccc(F)cc1)C1CCN(c2cc(N3CCCCC3)ncn2)CC1 ? 676

What do we get for Cc1ccn2cc(CCNC(=O)c3ccc(C(F)(F)F)cc3)nc2c1 ? 580

What do we get for COc1ccccc1NC(=O)Cn1cnc2nc(N3CCC(C(=O)NC4CC4)CC3)sc2c1=O ? 656

What do we get for Cn1nc(C(=O)N2CCCC(C(=O)N3CCCC3)C2)c2c1CCN(C(=O)c1ccccc1F)C2 (configuration not stated) ? 658

What do we get for CCOc1ccc(-c2noc(C3CC(=O)N(c4ccc5c(c4)OCO5)C3)n2)cc1 (configuration not stated) ? 951

What do we get for COc1ccccc1NC(=O)C(C)n1nc(C)c2nn(-c3ccccc3)c(-n3cccc3)c2c1=O (configuration not stated) ? 1130

What do we get for CC(C)(C)C(=O)Nc1ccc2nc(N3CCN(c4ccccc4)CC3)cc(C(=O)O)c2c1 ? 683

FYI, the data here is from the METLIN SMRT retention time set (Domingo-Almenara et al. 2019).
